Test system: MALME-3M melanoma
Assay: NCI-60 one-dose screen, 48 h (100 = growth as untreated, 0 = no growth, -100 = all killed)
Settings: 10 µM unless noted
The panel holds about 83,000 compounds, 20% with a hit somewhere; the sample as a whole holds those more often.
Rule for this label: Criterion met means growth is less than 90%; Criterion not met means growth is at least 90%.

1. CCOc1cccc(Nc2nc(N)nc3[nH]c4ccc(O)cc4c23)c1: Criterion not met
2. O=C(NCCNc1nccc(-c2c(-c3cccc(O)c3)nc3sccn23)n1)c1cccc(C(F)(F)F)c1: Criterion met
3. O[C@@H]1CCO[C@H](c2ccc3ccccc3c2)C1: Criterion not met
4. CC(C(=O)O)N1C(N)=NNC1c1ccccc1O (stereo not given): Criterion met
5. Cc1cc(NCCN(C(C)C)C(C)C)nc(/N=C(\N)Nc2ccc(Cl)c(C(F)(F)F)c2)n1: Criterion met
6. O=c1c2ccccc2[nH]n1Cc1ccc2c(c1)OCO2: Criterion not met
7. O=C(COc1ccc(Cl)cc1)N1CCN(Cc2ccc3c(c2)OCO3)CC1: Criterion not met
8. Cc1ccn2cc(Cc3cc(=O)oc4c3ccc3ccccc34)c(=O)nc2c1: Criterion not met
9. NC(=NCCCOc1ccc(F)cc1)Nc1ccc(Cl)c(Cl)c1: Criterion not met
10. CC1(C)N=C(N)N=C(N)N1c1cccc(CCCCc2ccccc2)c1: Criterion met
11. CC(=O)Nc1ccc(OC(=O)c2ccccc2O)cc1: Criterion not met
12. C=C1c2c(Cl)ccc(O)c2C(O)=C2C(=O)[C@]3(O)C(O)=C(C(N)=O)C(=O)[C@@H](N(C)C)[C@@H]3[C@@H](O)[C@H]12: Criterion met
13. CCC1CN2C(=N1)c1ccccc1-c1cc(Cl)ccc12 (stereo not given): Criterion met
14. CN1CCN(CC(O)COc2c(Br)c(Br)c(Br)c3c2OC(C)(C)C3)CC1 (stereo not given): Criterion met
15. O=c1cc(Cl)[nH]c(=O)[nH]1: Criterion not met
16. Cc1ncc(CO)c(C(=O)O)c1O: Criterion not met
17. COc1ccc(-c2cc3ccc(N(C)C)cc3nc2N)c(F)c1: Criterion met
18. CCN(CC)CCN1C(=O)c2c(c3c4ccccc4[nH]c3c3[nH]c4ccccc4c23)C1=O: Criterion met
19. Cc1ccc(-c2cn3cc([N+](=O)[O-])ccc3n2)cc1: Criterion not met
20. COc1ccc(/C=C/C(=O)c2ccc(Oc3ncnc4ccccc34)cc2)cc1OC: Criterion met
21. Nc1nc(Cl)cc(NCc2ccc(CNc3cc(Cl)nc(N)n3)cc2)n1: Criterion not met
22. Nc1nccc2c1ccn2-c1ccc(NC(=O)Nc2cccc(C(F)(F)F)c2)cc1: Criterion not met
23. COc1cc(NS(=O)(=O)c2ccc(N)cc2)ncn1: Criterion not met
24. NS(=O)(=O)c1ccc(-n2nc(-c3ccc(Cl)cc3)ccc2=O)cc1: Criterion not met
25. N#CC(C#N)=C(C#N)c1c[nH]c2ccccc12: Criterion met
26. COc1cc2c(/C=C3/C(=O)Nc4ccc(O)cc43)c(Cl)n(Cc3cc(OC)c(OC)c(OC)c3)c2cc1C: Criterion met
27. FC(F)(F)c1cccc([Si](F)(c2cccc(C(F)(F)F)c2)c2cccc(C(F)(F)F)c2)c1: Criterion not met
28. COc1ccc2c(c1)O/C(=C/c1ccc(OCC(=O)Nc3ccc(S(N)(=O)=O)cc3)cc1)C2=O: Criterion not met
29. Fc1ccc(Nc2ncnc3ccc(-c4cn[nH]c4)cc23)cc1Cl: Criterion met
30. CCCCCC/C=N/Nc1ccc([N+](=O)[O-])cn1: Criterion not met
31. NS(=O)(=O)c1ccc(Nc2nc(O)c(/C=C3\C=Nc4ccccc43)s2)cc1: Criterion not met
32. CC(C)(C)C(=O)/C=c1/[nH]c(=O)/c(=C/c2ccccc2O)s1: Criterion met
33. COC1OCC(OS(=O)(=O)c2ccc(C)cc2)C(OC(=O)c2ccccc2)C1OC(=O)c1ccccc1 (stereo not given): Criterion met
34. CC(C)CCC[C@@H](C)[C@H]1CC[C@H]2[C@@H]3CC=C4N(c5ccccc5)C(=O)CC[C@]4(C)[C@H]3CC[C@]12C: Criterion not met
